Where do these numbers come from? They come from patent US20170240637A1.

# system_name: T1, 4Ig-B7H3 (human, UniProt Q5ZPR3 27-461, limits assumed)
# T1 construct: also called 4Ig-B73H3
# T1 sequence (looked up): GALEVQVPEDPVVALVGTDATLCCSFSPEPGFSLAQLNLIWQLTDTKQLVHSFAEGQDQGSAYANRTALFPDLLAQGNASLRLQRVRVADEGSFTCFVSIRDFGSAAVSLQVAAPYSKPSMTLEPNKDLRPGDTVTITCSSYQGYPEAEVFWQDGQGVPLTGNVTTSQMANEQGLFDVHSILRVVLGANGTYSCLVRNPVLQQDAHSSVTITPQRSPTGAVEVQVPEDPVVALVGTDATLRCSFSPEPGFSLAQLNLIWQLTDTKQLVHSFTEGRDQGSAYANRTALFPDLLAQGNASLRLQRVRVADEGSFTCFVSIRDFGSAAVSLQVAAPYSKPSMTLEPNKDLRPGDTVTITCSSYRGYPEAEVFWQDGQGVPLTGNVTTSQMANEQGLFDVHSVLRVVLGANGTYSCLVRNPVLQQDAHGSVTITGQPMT
# test_name: SPR (Biacore T-100), 4Ig-B7H3 on CM5 chip, scFv injected
# Experimental: In brief, B7H3 antigen (either 2Ig-B7H3, 4Ig-B7H3, 2Ig-B7H3-mFc, 4Ig-B7H3-mFc), was directly immobilized onto the CM5 sensor chip via […]. Reference surface was set up for nonspecific binding and refractive index changes. For analysis of the kinetics of interactions, varying concentrations of scFvs were injected at flow rate of 30 μl/min using running buffer containing 10 mM HEPES, 150 mM NaCl, 3 mM EDTA, and 0.05% Surfactant P-20 (pH 7.4). […]
readout: Kd (nM)
The reply should be a number in nM, with the unit left off.

Request: Supply recorded Kd for hu8H9 clone S7.22 scFv (scFv, not shown: FLAG and His tags) scFv: QVQLVQSGAEVVKPGASVKLSCKTSGYTFTNYDINWVRQRPGQGLEWIGWIFPGDDSTQYNEKFKGKATLTTDTSTSTAYMELSSLRPEDTAVYFCARQTTGTWFAYWGQGTLVTVSSGGGGSGGGGSGGGGSEIVMTQSPATLSVSPGERVTLSCRASQSISDYLYWYQQKSHESPRLLIKYASQSIPGIPARFSGSGSGSEFTLTINSVEPEDVGVYYCQNGHSFPLTFGQGTKLELKR here.
Response: 1.2
